The measured values listed here are drawn from ChEMBL document CHEMBL6153102.

# test: Cmax in Sprague-Dawley rat at 2 mg/kg, iv measured upto 24 hrs by LC-MS/MS analysis
# Type: ADME, organism-based
# testConditions: in vivo
outcomeMeasure: Cmax (ng/mL)
Reply with just the number (in ng/mL).

Query string: // returns reported Cmax for input COc1ccc(C(=O)N2CCC3(CCN(C(=O)CN4CCC(COc5cnc(-c6cccc(Cn7nc(-c8cccc(C#N)c8)ccc7=O)c6)nc5)CC4)CC3)CC2)cc1N1CCC(=O)NC1=O
Result string: 2380

---

# test: Stability in human plasma assessed as half life
# Assay type: ADME, cell-free
outcomeMeasure: half-life

Query string: // returns reported half-life for input COc1ccc(C(=O)N2CCC3(CCN(C(=O)CN4CCC(COc5cnc(-c6cccc(Cn7nc(-c8cccc(C#N)c8)ccc7=O)c6)nc5)CC4)CC3)CC2)cc1N1CCC(=O)NC1=O
Result string: > 2 h
